target: Cathepsin S (Homo sapiens); assay: Inhibition of human cathepsin S using Z-Phe-Val-Arg-pNA as substrate after 10 mins by spectrophotometric analysis
Sequence (P25774 whole entry): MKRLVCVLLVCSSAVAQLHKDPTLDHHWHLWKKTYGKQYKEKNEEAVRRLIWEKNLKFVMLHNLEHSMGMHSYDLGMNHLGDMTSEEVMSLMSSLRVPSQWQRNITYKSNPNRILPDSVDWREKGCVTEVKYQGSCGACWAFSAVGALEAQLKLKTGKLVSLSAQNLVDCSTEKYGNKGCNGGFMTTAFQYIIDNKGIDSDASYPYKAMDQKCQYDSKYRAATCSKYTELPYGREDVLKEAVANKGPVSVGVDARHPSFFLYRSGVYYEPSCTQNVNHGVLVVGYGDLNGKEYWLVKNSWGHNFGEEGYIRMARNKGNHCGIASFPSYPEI
Parameter Measured: Ki (nM)

> print(dat)
                                    compound  parameter.measured  endpoint.result
 1  CC(C)CS(=O)(=O)CC(NC(=O)c1cc2ccccc2s1)C(=O)NCC#N (racemic)                  Ki               89
 2  CC(C)CS(=O)(=O)CC(NC(=O)c1cc2ccsc2s1)C(=O)NCC#N (racemic)                  Ki              100
 3  CC(C)CS(=O)(=O)CC(NC(=O)c1ccccc1)C(=O)NCC#N (racemic)                  Ki               40
 4  CC(C)CS(=O)(=O)CC(NC(=O)c1cc(-c2ccccc2)cs1)C(=O)NCC#N (racemic)                  Ki               60
 5  CC(C)CS(=O)(=O)CC(NC(=O)c1cccs1)C(=O)NCC#N (racemic)                  Ki               45
 6  CC(C)CS(=O)(=O)CC(NC(=O)c1ccc(-c2cccs2)cc1)C(=O)NCC#N (racemic)                  Ki              200
 7  CC(C)CS(=O)(=O)CC(NC(=O)c1ccc(-c2cccs2)s1)C(=O)NCC#N (racemic)                  Ki               94
 8  CC(C)CS(=O)(=O)C[C@H](NC(=O)c1ccccc1)C(=O)NCC#N                  Ki               33
 9  CC(C)CS(=O)(=O)CC(NC(=O)c1ccc(-c2ccsc2)s1)C(=O)NCC#N (racemic)                  Ki               61
10  CC(C)CS(=O)(=O)CC(NC(=O)c1ccc(-c2nnn[nH]2)s1)C(=O)NCC#N (racemic)                  Ki               76
11  CC(C)CS(=O)(=O)CC(NC(=O)c1ccc(-c2ccccc2)s1)C(=O)NCC#N (racemic)                  Ki               61

###

biological target: UniProtKB P43235; test: Inhibition of human cathepsin K using Z-Leu-Arg-AMC as substrate after 80 mins by fluorimetric analysis
pKi: −log10 of the molar value.
Parameter Measured: pKi

> print(dat)
                           molecular.string  parameter.measured  endpoint.result
1  CC(C)CS(=O)(=O)C[C@H](NC(=O)c1ccccc1)C(=O)N(C)N(C)C#N                 pKi             9.18

###

As shown below, each of these molecules has a reported pKi value.
Target: Cathepsin K (Homo sapiens)
Sequence (P43235 whole entry): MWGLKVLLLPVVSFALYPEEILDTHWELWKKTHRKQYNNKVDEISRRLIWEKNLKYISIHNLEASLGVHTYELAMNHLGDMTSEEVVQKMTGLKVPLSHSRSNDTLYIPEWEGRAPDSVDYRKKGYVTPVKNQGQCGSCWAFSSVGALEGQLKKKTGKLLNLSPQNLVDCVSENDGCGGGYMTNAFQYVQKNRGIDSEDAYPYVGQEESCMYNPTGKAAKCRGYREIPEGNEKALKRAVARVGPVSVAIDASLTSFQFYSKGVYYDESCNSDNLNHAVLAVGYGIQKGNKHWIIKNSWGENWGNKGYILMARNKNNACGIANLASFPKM
Test: Inhibition of human cathepsin K using Z-Leu-Arg-AMC as substrate after 10 mins by fluorimetric analysis
pKi: −log10 of the molar value.
Parameter Measured: pKi

> print(dat)
                                   molecule  parameter.measured  endpoint.result
1  CC(C)CS(=O)(=O)CC(NC(=O)c1ccccc1)C(=O)NCC#N (racemic)                 pKi           < 4.40
2  CC(C)CS(=O)(=O)CC(NC(=O)c1cc(-c2ccccc2)cs1)C(=O)NCC#N (racemic)                 pKi           < 5.40
3  CC(C)CS(=O)(=O)CC(NC(=O)c1ccc(-c2cccs2)cc1)C(=O)NCC#N (racemic)                 pKi           < 5.40
4  CC(C)CS(=O)(=O)CC(NC(=O)c1ccc(-c2ccccc2)s1)C(=O)NCC#N (racemic)                 pKi           < 5.40
5  CC(C)CS(=O)(=O)CC(NC(=O)c1cc2ccsc2s1)C(=O)NCC#N (racemic)                 pKi           < 5.40

###

molecular target: Procathepsin L (Homo sapiens, UniProt P07711); assay: Inhibition of human cathepsin L using Z-Phe-Arg-pNA as substrate after 80 mins by spectrophotometric analysis
Sequence (P07711 whole entry): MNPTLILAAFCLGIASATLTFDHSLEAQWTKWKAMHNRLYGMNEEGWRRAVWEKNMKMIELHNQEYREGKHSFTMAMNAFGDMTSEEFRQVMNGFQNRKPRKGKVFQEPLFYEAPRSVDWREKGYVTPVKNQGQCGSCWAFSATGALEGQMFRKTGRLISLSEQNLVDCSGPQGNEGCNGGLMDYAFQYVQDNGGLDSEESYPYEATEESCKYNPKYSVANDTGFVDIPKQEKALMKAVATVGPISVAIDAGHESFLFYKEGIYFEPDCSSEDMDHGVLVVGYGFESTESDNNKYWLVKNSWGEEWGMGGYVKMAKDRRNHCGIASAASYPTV
Parameter Measured: Ki (nM)

> print(dat)
                           molecular.string  endpoint.result
1  CC(C)CS(=O)(=O)C[C@H](NC(=O)c1ccccc1)C(=O)N(C)N(C)C#N               15

###

biological target: Cathepsin K (Homo sapiens, UniProt P43235); assay: Inhibition of human cathepsin K using Z-Leu-Arg-AMC as substrate after 10 mins by fluorimetric analysis
Parameter Measured: Ki

> print(dat)
                                   molecule                                 tested.on  endpoint.result
1  CC(C)CS(=O)(=O)C[C@H](NC(=O)c1ccccc1)C(=O)NCC#N  Cathepsin K (Homo sapiens, UniProt P43235)          > 40 µM
2  CC(C)CS(=O)(=O)CC(NC(=O)c1ccc(-c2ccsc2)s1)C(=O)NCC#N (racemic)  Cathepsin K (Homo sapiens, UniProt P43235)           > 4 µM
3  CC(C)CS(=O)(=O)CC(NC(=O)c1cc2ccccc2s1)C(=O)NCC#N (racemic)  Cathepsin K (Homo sapiens, UniProt P43235)           > 4 µM
4  CC(C)CS(=O)(=O)CC(NC(=O)c1cccs1)C(=O)NCC#N (racemic)  Cathepsin K (Homo sapiens, UniProt P43235)          > 40 µM
5  CC(C)CS(=O)(=O)CC(NC(=O)c1ccc(-c2nnn[nH]2)s1)C(=O)NCC#N (racemic)  Cathepsin K (Homo sapiens, UniProt P43235)           > 4 µM
6  CC(C)CS(=O)(=O)CC(NC(=O)c1ccc(-c2cccs2)s1)C(=O)NCC#N (racemic)  Cathepsin K (Homo sapiens, UniProt P43235)           1.1 µM

###

biological target: Cathepsin S (Homo sapiens); experiment: Inhibition of human cathepsin S using Z-Phe-Val-Arg-pNA as substrate after 80 mins by spectrophotometric analysis
pKi: −log10 of the molar value.
Parameter Measured: pKi

> print(dat)
                           molecular.string                   tested.on  endpoint.result
1  CC(C)CS(=O)(=O)C[C@H](NC(=O)c1ccccc1)C(=O)N(C)N(C)C#N  Cathepsin S (Homo sapiens)             9.26

###

target: Cathepsin B (Homo sapiens, UniProt P07858); assay: Inhibition of human cathepsin B using Z-Arg-Arg-pNA as substrate after 80 mins by spectrophotometric analysis
pKi: −log10 of the molar value.
Parameter Measured: pKi

> print(dat)
                           molecular.string                                 tested.on  endpoint.result
1  CC(C)CS(=O)(=O)C[C@H](NC(=O)c1ccccc1)C(=O)N(C)N(C)C#N  Cathepsin B (Homo sapiens, UniProt P07858)             8.24

###

Target: Cathepsin F (Homo sapiens, UniProt Q9UBX1)
Sequence (Q9UBX1 whole entry): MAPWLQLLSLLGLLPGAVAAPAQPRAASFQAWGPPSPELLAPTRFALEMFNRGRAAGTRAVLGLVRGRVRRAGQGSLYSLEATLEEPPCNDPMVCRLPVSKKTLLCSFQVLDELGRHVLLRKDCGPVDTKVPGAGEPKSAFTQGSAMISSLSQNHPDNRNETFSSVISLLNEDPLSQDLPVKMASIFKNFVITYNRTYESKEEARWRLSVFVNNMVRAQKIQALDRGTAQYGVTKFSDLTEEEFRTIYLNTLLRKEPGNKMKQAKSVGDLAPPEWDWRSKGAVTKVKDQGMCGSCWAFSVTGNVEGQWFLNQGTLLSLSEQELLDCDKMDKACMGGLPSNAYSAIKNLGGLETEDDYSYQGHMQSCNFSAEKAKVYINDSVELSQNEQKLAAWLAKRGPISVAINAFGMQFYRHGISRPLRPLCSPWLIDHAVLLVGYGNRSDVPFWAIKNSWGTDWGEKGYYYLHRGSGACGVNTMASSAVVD
Assay: Inhibition of human recombinant cathepsin F using Z-Phe-Arg-AMC as substrate by fluorimetric analysis
Parameter Measured: Ki

> print(dat)
                           molecular.string  parameter.measured  endpoint.result
1  CC(C)CS(=O)(=O)C[C@H](NC(=O)c1ccccc1)C(=O)N(C)N(C)C#N                  Ki            21 nM
